Hey, just so you know, these numbers are from the supplement of paper PMC10126150.

tested on: ATP; assay: switch fluorescence ratio, 500 uM ATP over buffer (Cy3 cluster intensity, sum of 5 cycles each) (fold (ratio)); higher = stronger signal-on switching upon ATP binding; sequences stand for … in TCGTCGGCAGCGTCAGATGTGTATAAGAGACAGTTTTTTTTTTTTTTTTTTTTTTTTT…TC; conditions: aptamer strand: ATP DNA aptamer (quencher-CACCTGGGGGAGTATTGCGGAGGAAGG + anchor), 100 nM annealed; ATP concentration: 500 uM;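 also: ATP exposure 15 min at 22 °C before imaging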
Could you please report measured switch fluorescence ratio for the items listed next?
Give your answer as a number; write no unit.

Per the reported ATP data, `GGGGCGGAGT` has switch fluorescence ratio of 0.989

Per the reported ATP data, `GGGTTTTTCG` has switch fluorescence ratio of 0.994

Per the reported ATP data, `AATTTTTCAT` has switch fluorescence ratio of 0.977

Per the reported ATP data, `GCGGGGGTTG` has switch fluorescence ratio of 0.978

Per the reported ATP data, `GTCGGGGTCA` has switch fluorescence ratio of 0.997

Per the reported ATP data, `AGGGGGTAGA` has switch fluorescence ratio of 1.05

Per the reported ATP data, `GTTCATAAAG` has switch fluorescence ratio of 0.98

Per the reported ATP data, `CGGGAATCGA` has switch fluorescence ratio of 1

Per the reported ATP data, `AAAATCGGTG` has switch fluorescence ratio of 1.01

Per the reported ATP data, `CAGTGATGGA` has switch fluorescence ratio of 1.01

Per the reported ATP data, `GGCCGGCAAA` has switch fluorescence ratio of 1.01

Per the reported ATP data, `ACGTGTCGGT` has switch fluorescence ratio of 1.03

Per the reported ATP data, `AGTTTTGAGG` has switch fluorescence ratio of 1

Per the reported ATP data, `CGTTAGAATC` has switch fluorescence ratio of 1.01

Per the reported ATP data, `TGTGGCCGTT` has switch fluorescence ratio of 1.03

Per the reported ATP data, `GGATTACAGT` has switch fluorescence ratio of 0.997

Per the reported ATP data, `CTAGTAGATC` has switch fluorescence ratio of 1.04

Per the reported ATP data, `CGGAGATAGT` has switch fluorescence ratio of 1.02

Per the reported ATP data, `TTATCCAATT` has switch fluorescence ratio of 0.98

Per the reported ATP data, `CAATTATTAG` has switch fluorescence ratio of 0.988
